experiment: Cytotoxicity against theophylline-stimulated mouse B16-4A5 cells assessed as cell viability at 30 uM after 72 hrs by MTT assay relative to control; format: toxicity; details: theophylline-stimulated B16-4A5 cells, read-out: Activity
READOUT LABEL: viability at 72 h, 30 µM

[[record]]
compound = "COc1cc(C=O)ccc1O [VANILLIN]"
reported_result = "104%"

[[record]]
compound = "CCC(=O)c1ccc(O)cc1 [PAROXYPROPIONE]"
reported_result = "117%"

[[record]]
compound = "C=C[C@H](O)c1ccc(OC(C)=O)cc1"
reported_result = "101%"


Okay, here is my list. What is viability at 72 h, 30 µM for each of these?
1. COC/C=C/c1ccc(O)cc1
2. C=C[C@H](O)c1ccc(OC(C)=O)c(OC)c1
3. O=C/C=C/c1ccc(O)cc1 [p-HYDROXYCINNAMALDEHYDE]
4. OC[C@H]1O[C@@H](Oc2ccc(O)cc2)[C@H](O)[C@@H](O)[C@@H]1O [ARBUTIN]
5. COc1cc(/C=C/CO)ccc1O [CONIFERYL ALCOHOL]

1. 93.6%
2. 113%
3. 94.3%
4. 82.4%
5. 88%
